Tgt: hOGA (Homo sapiens, UniProt O60502)
Construct: endogenous in cells; host or cells: HEK293 cells inducible for P301L mutant human Tau (isoform 2N4R)
Test protocol: OGA cellular assay (ICC detection of O-GlcNAcylated proteins in HEK293 cells inducible for P301L mutant human Tau)
Assay type: cell-based
Design: dose or concentration left out as unconfirmed
Measurement parameters: HEK293, read-out: Cellular Emax (%)
Measured parameter: Emax (%)
One number for each entry, in %.

Observe how each entry below is paired with its result.
Cc1cc(OC(F)(F)F)cc(Cl)c1Nc1nccc2c1ncn2CC(=O)N(C)C; 66
Cc1ccnc(C(C)C)c1Nc1nccc2c1ncn2CC(C)(F)F; 81

Working through the 2 compounds below one at a time, give Emax for each.
1. Cc1cc(C(F)(F)F)cc(Cl)c1Nc1nccc2c1ncn2CC(=O)N(C)C
2. Cc1cc(C(F)(F)F)cc(C)c1Nc1nccc2c1ncn2CC(=O)N(C)C1CC1

1. 64
2. 73

----------
Measured parameter: melting point (°C)
Give bare numbers, in °C.

Observe how each entry below is paired with its result.
Cc1cc(F)c(F)c(C)c1Nc1nccc2c1ncn2CC(=O)N(C)C; 198.1
Cc1c(-c2cccc(F)c2)nn(C)c1Nc1nccc2c1ncn2CC(=O)N(C)C; 230

Working through the 3 compounds below one at a time, give melting point for each.
1. COc1ccc(-n2nc(C)c(Nc3nccc4c3ncn4CC(=O)N(C)C)c2C)cc1
2. CC(C)c1cc(F)cc(Cl)c1Nc1nccc2c1ncn2CC(=O)N(C)C
3. CCc1cc(C(F)(F)F)cc(C)c1Nc1nccc2c1ncn2CC(=O)N(C)C

1. 199.9
2. 251.8
3. 211.6

----------
Tgt: hOGA (Homo sapiens)
Construct: endogenous in cells; host or cells: HEK293 cells inducible for P301L mutant human Tau (isoform 2N4R)
Test protocol: OGA cellular assay (ICC detection of O-GlcNAcylated proteins in HEK293 cells inducible for P301L mutant human Tau)
Format: cell-based
Parameters: dose or concentration left out as unconfirmed
Measurement parameters: HEK293, read-out: Cellular Emax (%)
Measured parameter: Emax (%)
Answers are plain numbers, in %.

[2H]C([2H])([2H])N(C(=O)Cn1cnc2c(Nc3c(C)cc(C(F)(F)F)cc3C)nccc21)C([2H])([2H])[2H] [Compound 53]; 87
Cc1cc(C(F)(F)F)cc(C)c1Nc1nccc2c1cnn2CC(=O)N(C)C [Compound 64]; 78

Working through the 8 compounds below one at a time, give Emax for each.
1. CCCCn1ncc2c(Nc3c(Cl)cncc3Cl)nccc21 [Compound 67]
2. Cc1cc(C(F)(F)F)cc(C)c1Nc1nccc2c1ncn2CC(=O)N(C)CC(F)(F)F [Compound 77]
3. Cc1cc(-c2cnn(C)c2)cc(C(C)C)c1Nc1nccc2c1ncn2CC(=O)N(C)C [Compound 22]
4. CN(C)C(=O)Cn1cnc2c(Nc3c(Cl)cc(F)cc3C(F)(F)F)nccc21 [Compound 24]
5. Cc1cc(F)cc(C)c1Nc1nccc2c1ncn2CC(=O)N(C)C [Compound 20]
6. Cc1cc(C(F)(F)F)cc(F)c1Nc1nccc2c1ncn2CC(=O)N(C)C [Compound 25]
7. Cc1cc(C(F)(F)F)nc(C)c1Nc1nccc2c1ncn2CC(=O)N(C)C [Compound 23]
8. Cc1cc(C#N)cc(C)c1Nc1nccc2c1ncn2CC(=O)N(C)C [Compound 46]

[6, 67, 31, 82, 83, 29, 51, 69]

Working through the 3 compounds below one at a time, give Emax for each.
1. CCCCn1ncc2c(Nc3c(Cl)cccc3Cl)nccc21 [Compound 66]
2. Cc1cc2c(cnn2C)c(C)c1Nc1nccc2c1ncn2CC(=O)N(C)C [Compound 13]
3. Cc1cc(C(F)(F)F)cc(Cl)c1Nc1nccc2c1ncn2CC(C)(F)F [Compound 2]

45
113
87

Working through the 5 compounds below one at a time, give Emax for each.
1. Cc1cc(C(F)(F)F)nc(C)c1Nc1nccc2c1ncn2CC(=O)N1CCC1 [Compound 51]
2. COc1ccc(-n2nc(C)c(Nc3nccc4c3ncn4CC(=O)N(C)C)c2C)cc1 [Compound 44]
3. Cc1cc(C(F)(F)F)cc(C)c1Nc1nccc2c1ncn2C(C)C(=O)N(C)C (centres unmarked) [Compound 72]
4. CNC(=O)Cn1cnc2c(Nc3c(C)cc(C(F)(F)F)cc3C)nccc21 [Compound 4]
5. Cc1cc(F)cc(F)c1Nc1nccc2c1ncn2CC(C)(F)F [Compound 3]

1: 15; 2: 64; 3: 2; 4: 101; 5: 57

Working through the 5 compounds below one at a time, give Emax for each.
1. Cc1cc(C(F)(F)F)cc(C)c1Nc1ncc(C2CC2)c2c1ncn2CC(=O)N(C)C [Compound 75]
2. CN(C)C(=O)Cn1cnc2c(Nc3c(Cl)cc(F)cc3Cl)nccc21 [Compound 21]
3. Cc1cc(C(F)(F)F)cc(C)c1Nc1nccc2c1ncn2C(C)(C)C(=O)N(C)C [Compound 71]
4. Cc1cc(C(F)(F)F)cc(C)c1Nc1nccc2c1ncn2C1CCCCO1 (centres unmarked) [Compound 73]
5. CN(C)C(=O)Cn1cnc2c(Nc3ccc(F)cc3C(F)(F)F)nccc21 [Compound 29]

[22, 69, 27, 42, 2]

----------
Tgt: recombinant human Meningioma Expressed Antigen 5 (MGEA5), also referred to as O-GlcNAcase (OGA) (Homo sapiens)
Construct: Full length OGA enzyme was purchased at OriGene (cat #TP322411); purchased OriGene TP322411
Test protocol: OGA biochemical assay (inhibition of FM-GlcNAc hydrolysis, fluorescence)
Measurement parameters: read-out: Enzymatic Emax (%)
Description: The hydrolysis FM-GlcNAc (Marker Gene technologies, cat #M1485) results in the formation of β-D-N-glucosamineacetate and fluorescein. The fluorescence of the latter can be measured at excitation wavelength 485 nm and emission wavelength 538 nm. An increase in enzyme activity results in an increase in fluorescence signal. Full length OGA enzyme was purchased at OriGene (cat #TP322411). The enzyme was stored in 25 mM Tris.HCl, pH 7.3, 100 mM glycine, 10% glycerol at −20° C. […]
Measured parameter: Emax (%)
Give bare numbers, in %.

Cc1cc(C(F)(F)F)cc(C)c1Nc1nccc2c1ncn2C1CCCCO1 (centres unmarked) [Compound 73]; 100

Working through the 7 compounds below one at a time, give Emax for each.
1. CCCCn1cnc2c(Nc3c(Cl)cncc3Cl)nccc21 [Compound 58]
2. CN(C)C(=O)Cn1cnc2c(Nc3c(Cl)cc(F)cc3Cl)nccc21 [Compound 21]
3. Cc1cc(Cl)cc(C)c1Nc1nccc2c1ncn2CC(=O)N(C)C [Compound 11]
4. Cc1cc(C(F)(F)F)cc(C)c1Nc1nccc2c1ncn2CC(=O)N1CCC1 [Compound 50]
5. Cc1cc(C(F)(F)F)cc(C)c1Nc1nccc2c1ncn2-c1cn(C)cn1 [Compound 82]
6. Cc1cc(C(F)(F)F)cc(Cl)c1Nc1nccc2c1ncn2CC(C)(F)F [Compound 2]
7. Cc1nn(-c2cccc(C#N)c2)c(C)c1Nc1nccc2c1ncn2CC(=O)N(C)C [Compound 33]

1. 95
2. 95
3. 99
4. 94
5. 97
6. 99
7. 97

----------
Measured parameter: melting point (°C)
One number for each entry, in °C.

Observe how each entry below is paired with its result.
Cc1cc(-c2cnn(C)c2)cc(C(C)C)c1Nc1nccc2c1ncn2CC(=O)N(C)C [Compound 22]; 234.4
Cc1cc2c(ncn2CC(=O)N(C)C)c(Nc2c(C)cc(C(F)(F)F)cc2C)n1 [Compound 30]; 188.2
CNC(=O)Cn1cnc2c(Nc3c(C)cc(C(F)(F)F)cc3C)nccc21 [Compound 4]; 275.1
Cc1cc(C(F)(F)F)cc(C)c1Nc1nccc2c1ncn2CC(=O)N(C)C [Compound 61]; 207.65
Cc1cc(C(F)(F)F)cc(C)c1Nc1nccc2c1ncn2CC(=O)N1CCC1 [Compound 50]; 176.4

Working through the 5 compounds below one at a time, give melting point for each.
1. Cc1cc(OC(F)(F)F)cc(Cl)c1Nc1nccc2c1ncn2CC(=O)N(C)C [Compound 16]
2. Cc1cc(C(F)(F)F)cc(C)c1Nc1nccc2c1ncn2C1CCCCO1 (stereo not shown) [Compound 73]
3. Cc1nn(-c2cccc(C#N)c2)c(C)c1Nc1nccc2c1ncn2CC(=O)N(C)C [Compound 33]
4. Cc1c(C(F)(F)F)nn(C)c1Nc1nccc2c1ncn2CC(=O)N(C)C [Compound 39]
5. Cc1ccnc(C(C)C)c1Nc1nccc2c1cnn2CC(=O)N(C)C [Compound 65]

1. 182.81
2. 169.8
3. 239.9
4. 240
5. 211.5

----------
Tgt: hOGA (Homo sapiens, UniProt O60502)
Construct: endogenous in cells; host or cells: HEK293 cells inducible for P301L mutant human Tau (isoform 2N4R)
Test protocol: OGA cellular assay (ICC detection of O-GlcNAcylated proteins in HEK293 cells inducible for P301L mutant human Tau)
Assay type: cell-based
Measurement parameters: Cellular hOGA; pEC50, Table 5; HEK293 P301L Tau cells, 6 hours incubation, O-GlcNAcylation readout
Measured parameter: pEC50
Numbers only, as −log10 of the molar value.

COc1ccc(-n2nc(C)c(Nc3nccc4c3ncn4CC(=O)N(C)C)c2C)cc1 [Compound 44]; 6.34
Cc1ccnc(C(C)C)c1Nc1nccc2c1ncn2CC(C)(F)F [Compound 1]; 7.34
Cc1cc(C(F)(F)F)cc(Cl)c1Nc1nccc2c1ncn2CC(=O)N(C)C [Compound 15]; 6.69

Now for another entry.
Look up pEC50 of CNC(=O)Cn1cnc2c(Nc3c(C)cc(C(F)(F)F)cc3C)nccc21 [Compound 4] and report it.
7.26
